Data origin, for the record: ChEMBL document CHEMBL4689842

- System: U2OS
- Protocol Text: Multiplex assay against U2OS
- Type: toxicity, cell-based
- Condition Parameters: human, 24 h, 10 µM, compound concentration 10 uM, replicate 1
Assay Metric: Population Tubulin-Different-Phenotype (%)
Answers are plain numbers, in %.

Please review the entries below; each comes with its answer.
INSERT INTO assay_data (molecule, assay_result) VALUES
  ('C=CCn1c(=O)c2cnc(Nc3ccc(N4CCN(C)CC4)cc3)nc2n1-c1cccc(C(C)(C)O)n1', 88),
  ('Cl.O=C(c1ccc(Nc2nccc(-c3cc4ccccc4s3)n2)cc1)N1CCC(N2CCCC2)CC1', 100),
  ('CCOC(=O)c1c(C)[nH]c2ccc3c(c12)CN1CCc2cc(OC)ccc2C1O3 (stereo unspecified)', 100),
  ('Cl.Oc1ccc2c3c1O[C@H]1c4[nH]c5c(c4C[C@@]4(O)[C@@H](C2)N(CC2CC2)CC[C@]314)C[C@@]1(O)[C@H]2Cc3ccc(O)c4c3[C@@]1(CCN2CC1CC1)[C@H]5O4', 5),
  ('CCCn1c(=O)c2[nH]c(-c3cnn(Cc4cccc(C(F)(F)F)c4)c3)nc2n(CC)c1=O', 58);

The following molecules each have a reported value; give each one's Population Tubulin-Different-Phenotype (%).
1. CCc1cccc(CC)c1NC(=O)c1nn(C)c2c1CCc1cnc(Nc3ccc(C(=O)NC4CCN(C)CC4)cc3OC(F)(F)F)nc1-2
2. O=C(Nc1ccc(Cl)cc1)Nc1cccc(-c2cccc(N3CCCC3)n2)c1
3. Cl.O=c1c2cccn2c2ccccc2n1CCCN1CCC(c2ccc(Cl)cc2)CC1

1: 97; 2: 61; 3: 100

The following molecules each have a reported value; give each one's Population Tubulin-Different-Phenotype (%).
1. COc1ccc(-c2ccc3c(N4CCOCC4)nc(N4C[C@@H](C)O[C@@H](C)C4)nc3n2)cc1CO
2. CN1CCC(=C2c3ccccc3CC(=O)c3sccc32)CC1.O=C(O)/C=C/C(=O)O [KETOTIFEN FUMARATE]
3. CN1C2CCC1CC(OC(c1ccc(F)cc1)c1ccc(F)cc1)C2.Cl (stereo unspecified)
4. CCn1cc(-c2ccnc3[nH]c(-c4cccc(CN(C)C)c4)cc23)c(-c2ccc(NC(=O)N(C)C)cc2)n1
5. CCN1CCN(c2ccc(Nc3cc(N(C)C(=O)Nc4c(Cl)c(OC)cc(OC)c4Cl)ncn3)cc2)CC1

[9, 85, 30, 98, 23]
